experimental system: Cytochrome P450 1A2 (Homo sapiens, UniProt P05177);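 further: PubChem cytochrome P450 panel assay, CYP1A2 panel member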
Sequence (P05177 whole entry): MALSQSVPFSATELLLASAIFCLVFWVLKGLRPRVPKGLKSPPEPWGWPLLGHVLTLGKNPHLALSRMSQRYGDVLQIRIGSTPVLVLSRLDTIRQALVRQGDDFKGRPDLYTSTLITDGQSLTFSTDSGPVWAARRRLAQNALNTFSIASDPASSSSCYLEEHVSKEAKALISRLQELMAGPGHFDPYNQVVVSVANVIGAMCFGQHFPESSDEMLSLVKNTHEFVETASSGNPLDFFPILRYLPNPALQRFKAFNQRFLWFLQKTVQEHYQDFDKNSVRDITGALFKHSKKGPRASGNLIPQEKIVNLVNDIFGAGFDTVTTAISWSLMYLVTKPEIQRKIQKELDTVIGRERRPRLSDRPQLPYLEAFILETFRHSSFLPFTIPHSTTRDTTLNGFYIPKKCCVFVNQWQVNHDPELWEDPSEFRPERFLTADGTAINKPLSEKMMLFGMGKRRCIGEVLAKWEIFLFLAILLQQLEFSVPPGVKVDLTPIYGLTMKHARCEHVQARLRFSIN
experimental readout: AC50

Reference set, count: 2
Cn1cc(-c2nc3cncnc3n(Cc3ccccc3Cl)c2=O)c2ccccc21: 3.16 µM (inconclusive)
Cc1cc(NC(=O)CSc2nc3ccsc3c(=O)n2Cc2ccccn2)[nH]n1: 6.31 µM (inconclusive)

Ask | Reported AC50, molecule O=C(Nc1ccc(Cl)cc1C(=O)c1ccccc1Cl)c1ccco1 : ____
Reply | 2.51 µM (inconclusive)

Ask | Endpoint output: AC50 of Cc1cc2nc(O)c([C@H](C)C(=O)c3ccc(Cl)cc3)nc2cc1C . Value?
Reply | 0.501 µM (inconclusive)

Ask | For the molecule shown here, CN1CCc2cc(Cl)c(O)cc2[C@@H](c2ccccc2)C1 [SCH-23390] , give the reported AC50.
Reply | 39.8 µM (inconclusive)

Ask | Can you look up the measured AC50 of COC(=O)[C@@]1(Cc2ccccc2)[C@H]2c3cc(C(=O)N4CCCC4)n(Cc4nc5ccccc5[nH]4)c3C[C@H]2CN1C(=O)c1ccccc1 for me?
Reply | 12.6 µM (inconclusive)

Ask | Query (molecule): O=C(Nc1ccc(-c2csc(-c3ccccc3)n2)cc1)c1ccccc1Cl ; field requested: AC50
Reply | 0.0708 µM (inconclusive)

Ask | Item under review: FC(F)(F)c1ccccc1-c1cc(NCCN2CCOCC2)ncn1 . Reported AC50?
Reply | 12.6 µM (inconclusive)

Ask | AC50 for O=C(c1csnn1)N1CCC2(CCCN(Cc3cc(C(F)(F)F)cc(C(F)(F)F)c3)C2)CC1 ?
Reply | 12.6 µM (inconclusive)

---

Entries and their AC50
experimental system: Microphthalmia-associated transcription factor (Homo sapiens)
Sequence (O75030 whole entry): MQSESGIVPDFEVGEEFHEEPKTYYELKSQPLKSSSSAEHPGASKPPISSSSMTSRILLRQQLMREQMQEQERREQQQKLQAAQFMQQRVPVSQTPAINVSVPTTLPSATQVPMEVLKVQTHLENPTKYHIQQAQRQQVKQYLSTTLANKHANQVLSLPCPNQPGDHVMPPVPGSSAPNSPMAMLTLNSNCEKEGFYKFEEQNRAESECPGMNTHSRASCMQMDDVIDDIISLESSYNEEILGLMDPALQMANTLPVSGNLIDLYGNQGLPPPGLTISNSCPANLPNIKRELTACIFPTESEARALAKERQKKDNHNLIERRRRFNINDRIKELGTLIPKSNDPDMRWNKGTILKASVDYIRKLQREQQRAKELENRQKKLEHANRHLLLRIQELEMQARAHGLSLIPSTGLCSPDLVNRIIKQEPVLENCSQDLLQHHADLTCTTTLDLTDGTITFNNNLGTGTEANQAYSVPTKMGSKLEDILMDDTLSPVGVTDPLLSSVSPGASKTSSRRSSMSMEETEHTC
measurement description: TRPM1 promoter luciferase signal decrease, dose response, MITF inhibitor project, cell-based, SK-MEL-5, cherry-picked, set 3 (AID 493073);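 further: SK-MEL-5 melanoma cells with luciferase driven by the MITF target TRPM1 promoter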
Type: functional
Where a name gives a salt, the structure may show the parent alone. The source made the active and inactive calls.

The following compounds have reported results that may help.
CCCc1ccc(-c2ccc(/C=C/C(=O)O)cc2)nc1: 0.039 µM (active)
CCOc1ccc2nc(NC3=NC(=O)CC(c4ccc(OC)cc4)N3)nc(C)c2c1 (centres undefined): 9.49 µM (active)
O=C(Nc1ccc2oc(-c3cccnc3)nc2c1)c1ccc([N+](=O)[O-])o1: 14.2 µM (active)
CC(=O)N(C)C1=C(N2CCOCC2)C(=O)c2ccccc2C1=O: 3.5 µM (active)
CCN1c2ccccc2NC2C1C(C(C)=O)C(=O)N2c1ccc(Cl)cc1 (centres undefined): 12.7 µM (active)
COc1ccc2nc(C)cc(SCC(=O)N/N=C/c3ccc(O)cc3O)c2c1: 10.1 µM (active)
C1CCC(C(CC2CCCCN2)C2CCCCC2)CC1 (centres undefined) [PERHEXILINE MALEATE]: 18.8 µM (active)
CN(C)CCCNC(=O)/C(=C\c1ccc(-c2ccc(Br)cc2)o1)NC(=O)c1ccccc1: 7.51 µM (active)

Ask | Given Cc1cc(C)c2c(N)c3cccc(C)c3nc2n1 , state its recorded AC50.
Reply | 3.21 µM (active)

---

experimental system: Nuclear receptor subfamily 0 group B member 1 (Homo sapiens);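 further: HEK293T cells transfected with SF-1 and DAX-1 plus StAR promoter luciferase reporter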
Sequence (P51843 whole entry): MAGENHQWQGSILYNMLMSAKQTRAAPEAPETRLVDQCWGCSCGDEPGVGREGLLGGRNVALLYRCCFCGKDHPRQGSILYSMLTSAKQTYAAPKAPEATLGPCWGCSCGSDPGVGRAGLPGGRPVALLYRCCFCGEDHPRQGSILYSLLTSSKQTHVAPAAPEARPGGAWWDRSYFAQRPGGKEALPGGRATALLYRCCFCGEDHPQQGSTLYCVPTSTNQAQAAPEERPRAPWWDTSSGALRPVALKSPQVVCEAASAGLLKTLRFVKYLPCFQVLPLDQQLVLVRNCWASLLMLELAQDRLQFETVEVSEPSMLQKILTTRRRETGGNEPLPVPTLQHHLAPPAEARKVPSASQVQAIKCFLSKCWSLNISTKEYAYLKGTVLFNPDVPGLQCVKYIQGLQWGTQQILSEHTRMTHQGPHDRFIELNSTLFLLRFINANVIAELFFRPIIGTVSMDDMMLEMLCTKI
Type: functional, cell-based
The source made the active and inactive calls.
Answer with one of the outcomes given here: active, inactive

Ask | Check the results log: what was the call for CCC1(O)CC2CN(CCc3c([nH]c4ccccc34)C(C(=O)OC)(c3cc4c(cc3OC)N(C=O)C3C(O)(C(=O)OC)C(OC(C)=O)C5(CC)C=CCN6CCC43C65)C2)C1 (centres undefined) ?
Reply | active

Ask | Hello, I am checking results. What call was entered for CNc1nnc(SCC(=O)c2cc(C)n(C3CC3)c2C)s1 ?
Reply | inactive

Ask | I'd appreciate the recorded outcome for CN(CCC#N)c1ccc(/C=C(\C#N)c2ccccn2)cc1 from this test.
Reply | active

Ask | What did this assay record as the result for COc1cc2c(O)c3c(c(-c4ccc5c(c4)OCO5)c2cc1OC)C(=O)OC3 ?
Reply | inactive

---

IC50 values, listed per item
experimental system: High affinity choline transporter 1 (Homo sapiens)
Sequence (Q9GZV3 whole entry): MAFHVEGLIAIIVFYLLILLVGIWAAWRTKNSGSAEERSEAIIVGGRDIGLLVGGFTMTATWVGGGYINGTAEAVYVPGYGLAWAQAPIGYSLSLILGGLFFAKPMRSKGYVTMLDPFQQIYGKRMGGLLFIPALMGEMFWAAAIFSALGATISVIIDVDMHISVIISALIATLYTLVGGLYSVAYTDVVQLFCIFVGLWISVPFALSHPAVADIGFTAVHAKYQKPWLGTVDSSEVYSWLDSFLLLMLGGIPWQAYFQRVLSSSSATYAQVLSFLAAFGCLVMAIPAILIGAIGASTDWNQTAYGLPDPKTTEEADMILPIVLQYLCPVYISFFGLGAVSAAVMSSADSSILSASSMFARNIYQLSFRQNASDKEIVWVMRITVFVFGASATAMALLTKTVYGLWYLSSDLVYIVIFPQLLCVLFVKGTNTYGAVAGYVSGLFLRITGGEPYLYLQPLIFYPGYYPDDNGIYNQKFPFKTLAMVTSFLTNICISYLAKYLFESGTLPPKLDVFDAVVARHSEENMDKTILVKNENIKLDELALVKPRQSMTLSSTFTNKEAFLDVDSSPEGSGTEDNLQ
measurement description: CHT inhibitors, dose response, cell-based, 5-point CRC, membrane potential dye (AID 504840)
Assay type: functional
The source made the active and inactive calls.

COC(=O)CSc1nnc(-c2ccc(NS(=O)(=O)c3ccccc3)cc2)o1: 12 µM (active)
O=C(CCC1CCCC1)NCCCNC(=O)CCC1CCCC1: 15.8 µM (active)
Cc1cccc(/N=C/c2cc(Br)cc(Cl)c2O)c1: 13.3 µM (active)
Cc1ccc(C(C)C)c(OCCOCCN2CCNCC2)c1: 13.8 µM (active)
COc1ccccc1/C=C1\SC(=O)N(CC(=O)NCCCn2ccnc2)C1=O: 19.1 µM (active)

Ask | Request - read-out IC50 | tested on High affinity choline transporter 1 (Homo sapiens) | molecule Cc1ccc(C(=O)N2CCN(c3ccccc3)CC2)cc1S(=O)(=O)N1CCCC1
Reply | 11 µM (active)

Ask | Give IC50 (High affinity choline transporter 1 (Homo sapiens)) of the following molecule: CCS(=O)(=O)C1=NSC2=NC(=O)/C(=C\c3ccc(OS(=O)(=O)c4ccccc4)c(OC)c3)C(=N)N21
Reply | 13.5 µM (active)

Ask | # get_value(readout= IC50, system= High affinity choline transporter 1 (Homo sapiens)) for Cc1cc(C)c(C(=O)Nc2ccc(S(=O)(=O)Nc3ccccn3)cc2)c(C)c1
Reply | 4.07 µM (active)

---

Entries annotated with measured EC50
measurement description: inhibitors of intracellular T. cruzi replication, confirmation, NIH3T3 host cells, beta-gal luminescence (AID 2044);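 further: intracellular parasites grown in NIH/3T3 mouse fibroblasts as host cells; luminescent beta-galactosidase reporter signal from transgenic T. cruzi replicating inside host cells; inhibitors lower the luminescence signal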
Type: functional, cell-based
Where a name gives a salt, the structure may show the parent alone. Active and inactive are the calls of the source.

Use the examples below as a reference point.
O=C(c1c[nH]cc1-c1ccccc1)c1cccc2ccccc12: 1930 nM (active)
CCCCn1nc(C(=O)Nc2nc3c(s2)CCCC3)c2ccccc2c1=O: 1730 nM (active)
O=C1c2cccc3cccc(c23)C(=O)N1CC1CCN(CC(O)COc2ccc3ccccc3c2)CC1 (stereo unspecified): 1650 nM (active)
CN1CCC(OC(=O)c2cccc(Cl)c2)CC1: < 100 nM (active)
C1CCC(C(CC2CCCCN2)C2CCCCC2)CC1 (stereo unspecified) [PERHEXILINE MALEATE]: 3130 nM (active)
COc1ccc(OCCCC(=O)Nc2nc(-c3ccccn3)cs2)cc1: 3240 nM (active)

Moving on to another compound below.
Ask | Record request: EC50 value, item COc1ccc(C(CNc2ccc(S(=O)(=O)N3CCCC3)cc2[N+](=O)[O-])N2CCCC2)cc1 (stereo unspecified)
Reply | 843 nM (active)

---

Read-out record for Cytochrome P450 3A4 (Homo sapiens, UniProt P08684): AC50

COc1ccc(CCNC(=O)COC(=O)c2cnc(C)cn2)cc1: 22.4 µM (inconclusive)
Cc1cc(NC(=O)c2c(F)cccc2F)n(-c2nc3ccccc3[nH]2)n1: 3.55 µM (inconclusive)
COc1ccc(Oc2ncc3nc(-c4cn(C)c5ccccc45)c(=O)n(C)c3n2)cc1: 15.8 µM (inconclusive)

Ask | What AC50 value was documented for this compound, CC(NC(=O)c1cccc(F)c1)C(c1cccs1)N1CCN(C)CC1 (stereo unspecified) ?
Reply | 15.8 µM (inconclusive)

Ask | Which AC50 value belongs to CCOC(=O)c1cnc2ccc(C)cc2c1Sc1ccccc1C(=O)OC ?
Reply | 39.8 µM (inconclusive)

Ask | I have this compound here, O=C(NCc1ccccn1)c1cc(-c2ccccc2Cl)on1 , and I need its recorded AC50.
Reply | 15.8 µM (inconclusive)

Ask | Query (compound): COc1ccc(N=C(S)Nc2ncccc2C)c(OC)c1 ; field requested: AC50
Reply | 39.8 µM (inconclusive)

Ask | What value of AC50 has been reported for the following compound? CNC(=O)NC(=O)CSc1nnc(-c2ccco2)n1Cc1ccccc1
Reply | 22.4 µM (inconclusive)

Ask | Item under review: Cc1nn(C(C)C(=O)N2CCc3ccccc32)c(C)c1[N+](=O)[O-] (stereo unspecified) . Reported AC50?
Reply | 17.8 µM (inconclusive)

Ask | If you can, please state the reported AC50 value of Cc1nc2c(C#N)c(C)nn2c(O)c1Cc1ccccc1 .
Reply | 25.1 µM (inconclusive)

Ask | Please look up its AC50: COc1ccc(NC(=O)N2CC[C@@]3(CCCN(C(=O)c4cnccn4)C3)C2)cc1
Reply | 3.16 µM (inconclusive)
